This listing pairs compounds with measured MIC.
system: N. gonorrhoeae; test: MIC against N. gonorrhoeae clinical isolates, normal and CO2 conditions; assay type: cell-based; settings: Neisseria gonorrhoeae, N. gonorrhoeae 178; normal growth environment (with CO2)
Measured property: MIC (µg/mL)

compound="NS(=O)(=O)c1nnc(NC(=O)CC2CCCCC2)s1 [CAI 0029]" unit_abbreviation=µg/mL relational_operator== observed_measurement=32
compound="CC(C)(C)CC(=O)Nc1nnc(S(N)(=O)=O)s1 [CAI 0028]" unit_abbreviation=µg/mL relational_operator== observed_measurement=32
compound="CCCCCCC(=O)Nc1nnc(S(N)(=O)=O)s1 [CAI 0027]" unit_abbreviation=µg/mL relational_operator== observed_measurement=32
compound="CC(C)CC(=O)Nc1nnc(S(N)(=O)=O)s1 [CAI 0026]" unit_abbreviation=µg/mL relational_operator== observed_measurement=32
compound="NS(=O)(=O)c1nnc(NC(=O)C2CCC2)s1 [CAI 0018]" unit_abbreviation=µg/mL relational_operator== observed_measurement=64
compound="NS(=O)(=O)c1nnc(NC(=O)C2CCCC2)s1 [CAI 0023]" unit_abbreviation=µg/mL relational_operator== observed_measurement=32
compound="CC[C@H]1OC(=O)[C@H](C)[C@@H](O[C@H]2C[C@@](C)(OC)[C@@H](O)[C@H](C)O2)[C@H](C)[C@@H](O[C@@H]2O[C@H](C)C[C@H](N(C)C)[C@H]2O)[C@](C)(O)C[C@@H](C)CN(C)[C@H](C)[C@@H](O)[C@]1(C)O [Azithromycin]" unit_abbreviation=µg/mL relational_operator== observed_measurement=1
compound="CC(C)C(=O)Nc1nnc(S(N)(=O)=O)s1 [CAI 0011]" unit_abbreviation=µg/mL relational_operator== observed_measurement=32
compound="CCC(=O)Nc1nnc(S(N)(=O)=O)s1 [CAI 009]" unit_abbreviation=µg/mL relational_operator== observed_measurement=16
compound="NS(=O)(=O)c1nnc(NC(=O)C2CC2)s1 [CAI 0020]" unit_abbreviation=µg/mL relational_operator== observed_measurement=64
compound="NS(=O)(=O)c1nnc(NC(=O)CCC2CCCC2)s1 [CAI 0015]" unit_abbreviation=µg/mL relational_operator== observed_measurement=16
compound="CCNc1nnc(S(N)(=O)=O)s1 [CAI 0032]" unit_abbreviation=µg/mL relational_operator=> observed_measurement=64
compound="CCN[C@H]1C[C@H](C)S(=O)(=O)c2sc(S(N)(=O)=O)cc21 [Dorzolamide]" unit_abbreviation=µg/mL relational_operator=> observed_measurement=64
compound="NS(=O)(=O)c1nnc(NC(=O)CN2CCCCC2)s1 [CAI 0035]" unit_abbreviation=µg/mL relational_operator=> observed_measurement=64
compound="CN1CCN(CC(=O)Nc2nnc(S(N)(=O)=O)s2)CC1 [CAI 0036]" unit_abbreviation=µg/mL relational_operator=> observed_measurement=64
compound="NS(=O)(=O)c1nnc(NC(=O)CC2CCCC2)s1 [CAI 0021]" unit_abbreviation=µg/mL relational_operator== observed_measurement=64
compound="NS(=O)(=O)c1nnc(NC(=O)CN2CCCC2)s1 [CAI 0037]" unit_abbreviation=µg/mL relational_operator=> observed_measurement=64
compound="CC(C)(C)C(=O)Nc1nnc(S(N)(=O)=O)s1 [CAI 0010]" unit_abbreviation=µg/mL relational_operator== observed_measurement=32
compound="NS(=O)(=O)c1nnc(NC(=O)C2CCCCC2)s1 [CAI 0022]" unit_abbreviation=µg/mL relational_operator== observed_measurement=32
compound="NS(=O)(=O)c1nnc(NC(=O)c2ccccc2)s1 [CAI 0012]" unit_abbreviation=µg/mL relational_operator== observed_measurement=16

----------
# MIC per record follows
system: N. gonorrhoeae; assay: MIC against N. gonorrhoeae clinical isolates, normal and CO2 conditions; assay type: cell-based; details: Neisseria gonorrhoeae, N. gonorrhoeae 178; normal growth environment (with CO2)
Measured property: MIC (µg/mL)

compound=NS(=O)(=O)c1nnc(NC(=O)CN2CCOCC2)s1 relational_operator== observed_measurement=64
compound=NS(=O)(=O)c1nnc(NC(=O)c2cccc(C(F)(F)F)c2)s1 relational_operator=> observed_measurement=64
compound=Nc1nnc(S(N)(=O)=O)s1 relational_operator=> observed_measurement=64
compound=CCCC(=O)Nc1nnc(S(N)(=O)=O)s1 relational_operator== observed_measurement=8
compound=CC(=O)Nc1ccc(S(N)(=O)=O)cc1 relational_operator=> observed_measurement=64
compound=NS(=O)(=O)c1nnc(NC(=O)CCC2CCCCC2)s1 relational_operator== observed_measurement=64
compound="CCOc1ccc2nc(S(N)(=O)=O)sc2c1 [Ethoxzolamide]" relational_operator=> observed_measurement=64
compound="CCN[C@H]1CN(CCCOC)S(=O)(=O)c2sc(S(N)(=O)=O)cc21 [Brinzolamide]" relational_operator=> observed_measurement=64
compound=CC(C)=CC(=O)Nc1nnc(S(N)(=O)=O)s1 relational_operator== observed_measurement=64
compound="NS(=O)(=O)c1cc(Cl)c(Cl)c(S(N)(=O)=O)c1 [Dichlorphenamide]" relational_operator=> observed_measurement=64

----------
tested on: N. gonorrhoeae; test: MIC against N. gonorrhoeae clinical isolates, normal and CO2 conditions; format: cell-based; details: Neisseria gonorrhoeae, N. gonorrhoeae 194; normal growth environment (with CO2)
Measured property: MIC

compound="CC(C)(C)CC(=O)Nc1nnc(S(N)(=O)=O)s1 [CAI 0028]" observed_measurement="64 µg/mL"
compound="NS(=O)(=O)c1nnc(NC(=O)CN2CCOCC2)s1 [CAI 0031]" observed_measurement="> 64 µg/mL"
compound="CCCC(=O)Nc1nnc(S(N)(=O)=O)s1 [CAI 0013]" observed_measurement="8 µg/mL"
compound="CCC(=O)Nc1nnc(S(N)(=O)=O)s1 [CAI 009]" observed_measurement="64 µg/mL"
compound="CCOc1ccc2nc(S(N)(=O)=O)sc2c1 [Ethoxzolamide]" observed_measurement="> 64 µg/mL"
compound="CCNc1nnc(S(N)(=O)=O)s1 [CAI 0032]" observed_measurement="> 64 µg/mL"
compound="NS(=O)(=O)c1nnc(NC(=O)C2CC2)s1 [CAI 0020]" observed_measurement="> 64 µg/mL"
compound="NS(=O)(=O)c1nnc(NC(=O)C2CCC2)s1 [CAI 0018]" observed_measurement="32 µg/mL"
compound="NS(=O)(=O)c1nnc(NC(=O)CC2CCCCC2)s1 [CAI 0029]" observed_measurement="> 64 µg/mL"
compound="CC(C)C(=O)Nc1nnc(S(N)(=O)=O)s1 [CAI 0011]" observed_measurement="64 µg/mL"
compound="CCN[C@H]1C[C@H](C)S(=O)(=O)c2sc(S(N)(=O)=O)cc21 [Dorzolamide]" observed_measurement="> 64 µg/mL"
compound="NS(=O)(=O)c1nnc(NC(=O)CC2CCCC2)s1 [CAI 0021]" observed_measurement="> 64 µg/mL"
compound="CN1CCN(CC(=O)Nc2nnc(S(N)(=O)=O)s2)CC1 [CAI 0036]" observed_measurement="> 64 µg/mL"
compound="CC(C)CC(=O)Nc1nnc(S(N)(=O)=O)s1 [CAI 0026]" observed_measurement="> 64 µg/mL"
compound="NS(=O)(=O)c1cc(Cl)c(Cl)c(S(N)(=O)=O)c1 [Dichlorphenamide]" observed_measurement="> 64 µg/mL"
compound="NS(=O)(=O)c1nnc(NC(=O)CN2CCCCC2)s1 [CAI 0035]" observed_measurement="> 64 µg/mL"
compound="CCCCCCC(=O)Nc1nnc(S(N)(=O)=O)s1 [CAI 0027]" observed_measurement="64 µg/mL"

----------
tested on: N. gonorrhoeae; assay: MIC against N. gonorrhoeae clinical isolates, normal and CO2 conditions; type: cell-based; settings: Neisseria gonorrhoeae, N. gonorrhoeae 194; normal growth environment (with CO2)
Measured property: MIC (µg/mL)

smiles_input=NS(=O)(=O)c1nnc(NC(=O)c2ccccc2)s1 measured_property=MIC relational_operator== observed_measurement=64
smiles_input=CC[C@H]1OC(=O)[C@H](C)[C@@H](O[C@H]2C[C@@](C)(OC)[C@@H](O)[C@H](C)O2)[C@H](C)[C@@H](O[C@@H]2O[C@H](C)C[C@H](N(C)C)[C@H]2O)[C@](C)(O)C[C@@H](C)CN(C)[C@H](C)[C@@H](O)[C@]1(C)O measured_property=MIC relational_operator== observed_measurement=0.5
smiles_input=NS(=O)(=O)c1nnc(NC(=O)C2CCCCC2)s1 measured_property=MIC relational_operator=> observed_measurement=64

Data credit: patent US20220213047A1
